SYSTEM: Neuronal acetylcholine receptor; alpha4/beta2 (Rattus norvegicus, UniProt P09483+P12390)
Sequence (P09483 whole entry): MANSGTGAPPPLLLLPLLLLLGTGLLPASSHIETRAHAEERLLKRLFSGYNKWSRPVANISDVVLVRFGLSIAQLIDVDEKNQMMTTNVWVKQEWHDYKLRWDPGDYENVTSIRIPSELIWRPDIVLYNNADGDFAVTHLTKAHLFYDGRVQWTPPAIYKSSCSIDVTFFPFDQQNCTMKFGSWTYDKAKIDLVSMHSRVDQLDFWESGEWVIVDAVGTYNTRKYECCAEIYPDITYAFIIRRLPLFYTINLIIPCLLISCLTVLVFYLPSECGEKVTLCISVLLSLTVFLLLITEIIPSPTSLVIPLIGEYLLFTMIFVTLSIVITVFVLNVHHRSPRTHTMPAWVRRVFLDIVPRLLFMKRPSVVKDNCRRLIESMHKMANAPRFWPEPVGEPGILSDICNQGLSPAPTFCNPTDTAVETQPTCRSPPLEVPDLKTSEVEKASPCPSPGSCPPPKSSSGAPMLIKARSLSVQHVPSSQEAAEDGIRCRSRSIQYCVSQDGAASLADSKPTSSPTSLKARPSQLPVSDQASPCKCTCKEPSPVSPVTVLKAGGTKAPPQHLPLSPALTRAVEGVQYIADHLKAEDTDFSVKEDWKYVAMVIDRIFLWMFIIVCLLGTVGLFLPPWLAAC
Sequence (P12390 whole entry): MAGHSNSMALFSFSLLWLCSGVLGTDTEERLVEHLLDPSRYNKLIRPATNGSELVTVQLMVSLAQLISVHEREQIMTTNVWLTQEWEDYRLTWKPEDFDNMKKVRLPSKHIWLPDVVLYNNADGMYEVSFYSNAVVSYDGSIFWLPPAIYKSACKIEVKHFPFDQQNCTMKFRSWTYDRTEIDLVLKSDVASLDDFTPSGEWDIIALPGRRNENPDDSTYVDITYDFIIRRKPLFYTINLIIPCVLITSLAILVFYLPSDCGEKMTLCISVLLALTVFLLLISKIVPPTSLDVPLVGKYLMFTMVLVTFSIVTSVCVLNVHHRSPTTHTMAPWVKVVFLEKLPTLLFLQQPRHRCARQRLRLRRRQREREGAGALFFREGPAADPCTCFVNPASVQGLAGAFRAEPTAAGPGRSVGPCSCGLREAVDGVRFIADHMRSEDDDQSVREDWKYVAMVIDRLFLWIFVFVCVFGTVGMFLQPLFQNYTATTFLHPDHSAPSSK
ASSAY OVERVIEW: Displacement of [3H]cytisine from Nicotinic acetylcholine receptor alpha4-beta2 in rat forebrain

| COMPOUND | Ki (nM) |
| --- | --- |
| c1cc2c(cn1)C1N3CCCC1(CC3)C2 (stereo in doubt; (+)4b) | 318 |
| c1cc2c(cn1)[C@H]1N3CCC1(CC3)C2 | 962 |
| c1cncc(C2C3CCN2CC3)c1 (stereo in doubt; 3 (+)) | 2.32 |
